Here the recorded MIC C. albicans is given for each entry.
- Test system: Candida albicans (ATCC 36232)
- test-protocol: MIC test, antifungal activity
- Assay type: cell-based
- assay-setup: Table 1, peptide fragments of Tenecin
No end group written: not given here.

- LSVEAKGVKLGGGYCNGKRVCVCR--NH2 (LSVEAKGVKLGGGYCNGKRVCVCR-NH2; cysteine pairing not given here) [TEQ]: > 100 µg/mL
- VTCDILSVEAKGVKLNDAACAAHC-LFRGRSGGYCNGKRVCVCR--CO2 H [Tenecin]: > 500 µg/mL
- YCNGKRVCVCR--NH2 (YCNGKRVCVCR-NH2; cysteine pairing not given here) [TED]: 10 µg/mL

Field MIC C. albicans (entry DAACAAHHCLFR--NH2 (DAACAAHHCLFR-NH2; cysteine pairing not given here) [TEA] ) reads > 100 µg/mL

Reported MIC C. albicans ( VTCDILSSVEAKGVKL--NH2 (VTCDILSSVEAKGVKL-NH2) [TEC] ) = > 100 µg/mL

====

Attribute: MIC S. aureus
- System: Staphylococcus aureus (ATCC 6538)
- test-protocol: MIC test, antibacterial activity
- Type: cell-based
- assay-setup: Table 3, addition of an amino acid to N-terminal of TED
No end group written: not given here.
All answers are understood in µg/mL, so give the number only.

• PYCNGKRVCVCR--NH2 (PYCNGKRVCVCR-NH2; cysteine pairing not given here) [TEDP] = 5

Record DYCNGKRVCVCR--NH2 (DYCNGKRVCVCR-NH2; cysteine pairing not given here) [TEDD] . Reported MIC S. aureus: 10

Lab note: measured MIC S. aureus of YCNGKRVCVCR--NH2 (YCNGKRVCVCR-NH2; cysteine pairing not given here) [TED] was 10

====

substances and their reported MIC S. aureus
- System: Staphylococcus aureus (ATCC 6538)
- test-protocol: MIC test, antibacterial activity
- Type: cell-based
- assay-setup: Table 1, peptide fragments of Tenecin
No end group written: not given here.
Give the quantity in µg/mL, number only.

Notebook: VTCDILSVEAKGVKLNDAACAAHC-LFRGRSGGYCNGKRVCVCR--CO2 H [Tenecin] , MIC S. aureus read as 3

Just so you know, measured MIC S. aureus for YCNGKRVCVCR--NH2 (YCNGKRVCVCR-NH2; cysteine pairing not given here) [TED] came out at 10

====

- System: Candida albicans (ATCC 36232)
- test-protocol: MIC test, antifungal activity
- Format: cell-based
- assay-setup: Table 3, addition of an amino acid to N-terminal of TED
No end group written: not given here.
Here the recorded MIC C. albicans is given for each entry.
Number only, in µg/mL; omit the unit.

* DYCNGKRVCVCR--NH2 (DYCNGKRVCVCR-NH2; cysteine pairing not given here) [TEDD] | 50

Record AYCNGKRVCVCR--NH2 (AYCNGKRVCVCR-NH2; cysteine pairing not given here) [TEDA] , field MIC C. albicans: 10

Looking up PYCNGKRVCVCR--NH2 (PYCNGKRVCVCR-NH2; cysteine pairing not given here) [TEDP] , I found its MIC C. albicans recorded as 5

Lookup result for YCNGKRVCVCR--NH2 (YCNGKRVCVCR-NH2; cysteine pairing not given here) [TED] ; measured MIC C. albicans: 10

For reference, reported MIC C. albicans for KYCNGKRVCVCR--NH2 (KYCNGKRVCVCR-NH2; cysteine pairing not given here) [TEDK] stands at 5

Consider FYCNGKRVCVCR--NH2 (FYCNGKRVCVCR-NH2; cysteine pairing not given here) [TEDF] . Its measured MIC C. albicans is 10

Form field MIC C. albicans, entry LYCNGKRVCVCR--NH2 (LYCNGKRVCVCR-NH2; cysteine pairing not given here) [TEDL] : 5

Briefly, MIC C. albicans measured for SYCNGKRVCVCR--NH2 (SYCNGKRVCVCR-NH2; cysteine pairing not given here) [TEDS] : 50

Input WYCNGKRVCVCR--NH2 (WYCNGKRVCVCR-NH2; cysteine pairing not given here) [TEDW] . Output MIC C. albicans: 20
